Entry source: PubChem BioAssay AID743395

Consider the following molecules; for each one, report its AC35.
- Tested on: HepG2 viability, CellTiter-Glo ATP luminescence, 72 h
- test-description: viability loss in human hepatoma cells – cell-based, CellTiter-Glo luminescence, cherry-pick, set 2, cytotoxicity control, dose response (AID 743395)

Kindly give each listed record's AC35.
1. CC(C)C[C@H]1CN([C@@H](Cc2ccc(O)cc2)CN2CCC[C@H]2CN2C(=O)C(=O)NC[C@@H]2Cc2ccccc2)C(=O)C(=O)N1CC1CCCCC1
2. COc1cc(OC)c(-c2c3cc(O)c(=O)cc-3oc3cc(O)c(O)cc23)cc1OC
3. CC1(C(=O)NCc2cccs2)Cc2c(-c3ccc4c(c3)OCO4)ccnc2O1 (configuration not stated)

1. 15 µM
2. 13.2 µM
3. 16.4 µM
